experiment: Cytotoxicity against african green monkey Vero cells after 48 hrs by MTT assay; format: cell-based, Chlorocebus sabaeus; conditions: chlorocebus sabaeus, Vero cells
Quantity measured: CC50 at 48 h (µM)
Number only, in µM; omit the unit.

Q: Entry CO[C@@H]1[C@H]2OC(C)(C)O[C@H]2O[C@@H]1C(=O)c1cn2cc(C(=O)c3ccc(Br)cc3)nc2s1 : reported CC50 at 48 h = ?
Ans: 351

Q: Entry CC(=O)O[C@@H]1[C@H]2OC(C)(C)O[C@H]2O[C@@H]1C(=O)c1cnc2sc(C(=O)c3ccc(Br)cc3)cn12 : reported CC50 at 48 h = ?
Ans: 139

Q: Entry COC1[C@@H](C(=O)c2cnc3sc(C(=O)c4ccc(Br)cc4)cn23)O[C@@H]2OC(C)(C)O[C@H]12 (single isomer, unassigned) : reported CC50 at 48 h = ?
Ans: 295

----------
test system: Vero; experiment: Cytotoxicity against african green monkey Vero cells after 48 hrs by MTT assay; format: cell-based, Chlorocebus sabaeus; conditions: Chlorocebus sabaeus, Vero, 48 h
pIC50: −log10 of the molar value.
Quantity measured: pIC50

Q: API: value(readout=pIC50, system=Vero) for record NC(=O)c1ncn([C@@H]2O[C@H](CO)[C@@H](O)[C@H]2O)n1
Ans: < 3.40

----------
Provide the reported CC50 at 48 h of each item.
assay: Cytotoxicity against african green monkey Vero cells after 48 hrs by MTT assay; assay type: cell-based, Chlorocebus sabaeus; conditions: chlorocebus sabaeus, Vero cells
Number only, in µM; omit the unit.

Q: Entry CO[C@@H]1[C@H]2OC(C)(C)O[C@H]2O[C@@H]1C(=O)c1cnc2sc(C(=O)c3ccc(Cl)cc3)cn12 : reported CC50 at 48 h = ?
Ans: 371

Q: Entry CC(=O)O[C@@H]1[C@H]2OC(C)(C)O[C@H]2O[C@@H]1C(=O)c1cnc2sc(C(=O)c3ccc(Cl)cc3)cn12 : reported CC50 at 48 h = ?
Ans: 70

----------
experiment: Selectivity index, ratio of CC50 for african green monkey Vero cells to EC50 for Junin virus IV4454 infected in african green monkey Vero cells; assay type: toxicity, cell-based; details: read-out: Selectivity Index
Provide the reported selectivity ratio of each item.

Q: Entry CO[C@@H]1[C@H]2OC(C)(C)O[C@H]2O[C@@H]1C(=O)c1cn2cc(C(=O)c3ccccc3)nc2s1 : reported selectivity ratio = ?
Ans: > 32.5

Q: Entry CC(=O)O[C@@H]1[C@H]2OC(C)(C)O[C@H]2O[C@@H]1C(=O)c1cnc2sc(C(=O)c3ccc(Br)cc3)cn12 : reported selectivity ratio = ?
Ans: 24.8

Q: Entry COC1[C@@H](C(=O)c2cnc3sc(C(=O)c4ccccc4)cn23)O[C@@H]2OC(C)(C)O[C@H]12 (single isomer, unassigned) : reported selectivity ratio = ?
Ans: > 21.6

Q: Entry NC(=O)c1ncn([C@@H]2O[C@H](CO)[C@@H](O)[C@H]2O)n1 [RIBAVIRIN] : reported selectivity ratio = ?
Ans: > 21.6

Q: Entry CC(=O)O[C@@H]1[C@H]2OC(C)(C)O[C@H]2O[C@@H]1C(=O)c1cnc2sc(C(=O)c3ccc(Cl)cc3)cn12 : reported selectivity ratio = ?
Ans: 9.3

Q: Entry CO[C@@H]1[C@H]2OC(C)(C)O[C@H]2O[C@@H]1C(=O)c1cn2cc(C(=O)c3ccc(Br)cc3)nc2s1 : reported selectivity ratio = ?
Ans: 81.6

Q: Entry CO[C@@H]1[C@H]2OC(C)(C)O[C@H]2O[C@@H]1C(=O)c1cn2cc(C(=O)c3ccc(Cl)cc3)nc2s1 : reported selectivity ratio = ?
Ans: > 33.6

Q: Entry CC(=O)O[C@@H]1[C@H]2OC(C)(C)O[C@H]2O[C@@H]1C(=O)c1cnc2sc(C(=O)c3ccccc3)cn12 : reported selectivity ratio = ?
Ans: > 50.6

Q: Entry CC(=O)O[C@@H]1[C@H]2OC(C)(C)O[C@H]2O[C@@H]1C(=O)c1cnc2sc(C(=O)c3ccc(F)cc3)cn12 : reported selectivity ratio = ?
Ans: > 81.6

Q: Entry CO[C@@H]1[C@H]2OC(C)(C)O[C@H]2O[C@@H]1C(=O)c1cn2cc(C(=O)c3ccc(F)cc3)nc2s1 : reported selectivity ratio = ?
Ans: > 138

Q: Entry COC1[C@@H](C(=O)c2cnc3sc(C(=O)c4ccc(Br)cc4)cn23)O[C@@H]2OC(C)(C)O[C@H]12 (single isomer, unassigned) : reported selectivity ratio = ?
Ans: 268

Q: Entry CO[C@@H]1[C@H]2OC(C)(C)O[C@H]2O[C@@H]1C(=O)c1cnc2sc(C(=O)c3ccc(F)cc3)cn12 : reported selectivity ratio = ?
Ans: > 5.1

Q: Entry CO[C@@H]1[C@H]2OC(C)(C)O[C@H]2O[C@@H]1C(=O)c1cnc2sc(C(=O)c3ccc(Cl)cc3)cn12 : reported selectivity ratio = ?
Ans: 464

----------
Provide the reported CC50 at 48 h of each item.
assay: Cytotoxicity against african green monkey Vero cells after 48 hrs by MTT assay; assay type: cell-based, Chlorocebus sabaeus; details: chlorocebus sabaeus, Vero cells

Q: Entry CO[C@@H]1[C@H]2OC(C)(C)O[C@H]2O[C@@H]1C(=O)c1cnc2sc(C(=O)c3ccc(F)cc3)cn12 : reported CC50 at 48 h = ?
Ans: > 400 µM

Q: Entry COC1[C@@H](C(=O)c2cnc3sc(C(=O)c4ccccc4)cn23)O[C@@H]2OC(C)(C)O[C@H]12 (single isomer, unassigned) : reported CC50 at 48 h = ?
Ans: > 400 µM

Q: Entry CC(=O)O[C@@H]1[C@H]2OC(C)(C)O[C@H]2O[C@@H]1C(=O)c1cnc2sc(C(=O)c3ccc(F)cc3)cn12 : reported CC50 at 48 h = ?
Ans: > 400 µM
